Read-out: solute carrier (SLCO1B1), SLCO1B1 (gene 10599)
test: LTEA_HepaRG_SLCO1B1: Life Technologies and Expression Analysis (LTEA) Assay for solute carrier (SLCO1B1) using HepaRG (AID 2283530)
experimental-parameters: mRNA level, 48 h; actives raise or lower the signal
Calls of active or inactive are those of the source. Rule for the calls: active = hit-call score of the fitted dose curve at least 0.9, where 1 is the maximum; inactive = score below 0.9.
Labels: true (1) for active, false (0) for inactive

compound	label-class
CCC(C)OC(=O)N1CCCCC1CCO (stereo not given)	false (0)
CCCCCOC(=O)COc1cc(N2C(=O)C3=C(CCCC3)C2=O)c(F)cc1Cl	false (0)
COC(=O)c1ccccc1C(=O)O	false (0)
O=C(O)c1ccccc1	false (0)
CCOC(=O)c1ccc(O)cc1	false (0)
CCCCOC(=O)[C@@H](C)Oc1ccc(Oc2ccc(C(F)(F)F)cn2)cc1	false (0)
S=C([S-])NCCNC(=S)[S-].[Mn+2]	true (1)
CC1(C)C(C=C(Cl)Cl)C1C(=O)OCc1cccc(Oc2ccccc2)c1 (stereo not given)	false (0)
C=CCOC(Cn1ccnc1)c1ccc(Cl)cc1Cl (stereo not given)	true (1)
CCN(CC)C(=O)c1cccc(C)c1	false (0)
C#CCOC(=O)[C@@H](C)Oc1ccc(Oc2ncc(Cl)cc2F)cc1	false (0)
CCN(Cc1c(F)cccc1Cl)c1c([N+](=O)[O-])cc(C(F)(F)F)cc1[N+](=O)[O-]	false (0)
CCCCCCC(C)OC(=O)COc1nc(F)c(Cl)c(N)c1Cl (stereo not given)	false (0)
CC(=O)S[C@@H]1CC2=CC(=O)CC[C@]2(C)[C@H]2CC[C@@]3(C)[C@@H](CC[C@@]34CCC(=O)O4)[C@H]12	true (1)
Cc1nn(C)c(Oc2ccccc2)c1C=NOCc1ccc(C(=O)OC(C)(C)C)cc1	true (1)
CCCCC(CC)CN1C(=O)C2C3C=CC(C3)C2C1=O (stereo not given)	false (0)
CCNc1nc(N)nc(Cl)n1	false (0)
CCOC(=O)C(C)Oc1ccc(Oc2nc3ccc(Cl)cc3o2)cc1 (stereo not given)	false (0)
CCCCC(CC)COC(=O)c1ccccc1C(=O)O (stereo not given)	false (0)
CCOC(=O)NCCOc1ccc(Oc2ccccc2)cc1	true (1)
